experiment: Components of the Cytosolic LPS Sensing Pathway: Gene Identification via Genome-wide siRNA Screen; details: RAW264.7 macrophages, IL-1a HTRF, actives lie on both sides, screened at 100 nM (by protocol), cells primed 5 h with Pam3CSK4 first;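 note: robust z of the log signal after scaling to non-targeting control siRNA wells of the plate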
The whole screen tested about 53,000 sequences, of which about 3,700 (7%) were called active. Only a selection was taken, and actives are over-represented in it overall.
Assay metric: z-score
Output spec: single numeric token, no unit.

Consider the worked cases shown below.
Query block: I would be grateful if you could share the reported z-score for GGGUGAAAGCUGACUUUAATT against Rnh1 .
Result block: -1.57

Query block: What do you have for GCUGUCAAAUUAACCUGUGTT against Spin2c ?
Result block: -2.31

Continuing:
Query block: Dear colleague, I am looking for the recorded z-score of the following sequence: CGUGAUCGUGCGUUCCAACTT against Chrnb4
Result block: 3.11

Query block: What would you report for GCGACAAAUCAAAAAGGCCTT against Dnajb9 ?
Result block: -0.0942

Query block: Same lookup for CCUCAUCGAAUUCGAUACCTT against Arrb2 , please.
Result block: -0.181

Query block: What about GGCAGUUAUGAUAAAGAUUTT against Slc25a16 ?
Result block: -0.896

Query block: Same question for GCUUGCACUGGACUCAACUTT against Pax4 please.
Result block: -2.76

Query block: Try this sequence next: GGAAGUUUGCUCCAGCCUUTT against Tmem33
Result block: -0.202

----------
assay: Components of the Cytosolic LPS Sensing Pathway: Gene Identification via Genome-wide siRNA Screen; details: RAW264.7 macrophages, IL-1a HTRF, actives lie on both sides, screened at 100 nM (by protocol), cells primed 5 h with Pam3CSK4 first;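 note: robust z of the log signal after scaling to non-targeting control siRNA wells of the plate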
About 3,700 (7%) of roughly 53,000 sequences were called active. Shown is part of a subset that was picked to be rich in actives.
Reported values of z-score for individual entries
// no unit, no text: just the number

Query block: Look at this sequence and give its reported z-score. GGGAAACUCAAACUGAUUGTT against 9930104L06Rik
Result block: 0.0417

Query block: Okay, and GCUCUGAUGGUCUACUGCUTT against Rgs3 ?
Result block: -0.347

New cases:
Query block: GET /values?readout=z-score&item= GCCGAUGAUACCAAACCGATT against Oser1
Result block: 0.151

Query block: And the next one, GGUGGACUUCAUGUAGAUUTT against Eif3m ?
Result block: -1.07

----------
test: Components of the Cytosolic LPS Sensing Pathway: Gene Identification via Genome-wide siRNA Screen; conditions: RAW264.7 macrophages, IL-1a HTRF, actives lie on both sides, screened at 100 nM (by protocol), cells primed 5 h with Pam3CSK4 first;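 note: robust z of the log signal after scaling to non-targeting control siRNA wells of the plate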
Among all 53,000 sequences or so, about 3,700 (7%) were called active. Many of the other results were omitted from the sample, so actives are more common in it than they were.
Entries get a class label from measured z-score. See ranges: low bracket (below -0.2), middle bracket (-0.2 to below 1), high bracket (1 or more)

Example results:
Query block: Just checking, what class would you give CCACAUGCCAAAAUAAUACTT against Oxr1 here?
Result block: low bracket

Query block: Queued: GGAGAAAAACUGAGCAGCCTT against Chst12
Result block: low bracket

Query block: Same thing, different sequence: GCCAAAUCAUGGGUCUGGUTT against Npas3
Result block: middle bracket

Query block: Now this one: GGAUAUGCACUGUUUUCAATT against Nudt16
Result block: high bracket

Query block: Similarly, GGGCGACACAAGGUUUUUGTT against Kif3a ?
Result block: high bracket

Query block: Entry to check: CCUAUAUGACAAAAGACAGTT against Glra2
Result block: middle bracket

We now examine a further sequence.
Query block: Form field 'band' for GGUAAUUGAGCUGAGUUCUTT against Rad54l2
Result block: middle bracket

Hey, just so you know, these numbers are from PubChem BioAssay AID1508600.
